Test system: MDA-MB-435
Assay: NCI tumour cell line growth inhibition, 48 h
Active and inactive are the calls of the source. No stated cut-off is given here; in the data, active = GI50 up to about 1.1 µM and inactive = higher.
readout.name: GI50

compound=Cn1c2cn[nH]c(=O)c2c2ccc3ccccc3c21 observed_result="69.7 µM (inactive)"
compound=CO[C@H]1C[C@H](n2cc(C)c(=O)[nH]c2=O)O[C@@H]1CO observed_result="> 100 µM (inactive)"
compound=[O-][n+]1c2cccc(O)c2[n+]([O-])c2cccc(O)c21 observed_result="> 100 µM (inactive)"

What does the data say about its GI50? Entry: COC(=O)C(=O)C(C(=O)C(=O)Nc1ccccc1C(=O)OC)c1nc2ccc(C(=O)c3ccccc3)cc2nc1O (stereo unspecified)
38.9 µM (inactive)

Returns the measured GI50 for the input compound. Input: N#CC(C#N)C1CN2CCC1CC2 (stereo unspecified)
> 100 µM (inactive)

Tell me the measured GI50 of Clc1cc2nc(C3CCCO3)[nH]c2cc1Cl (stereo unspecified) , please.
28.2 µM (inactive)

Item under review: O=C1O[C@]2(c3ccccc3)C(c3ccccc3)=C[C@]2(C(=O)c2ccccc2)C1=O . Reported GI50?
37.2 µM (inactive)
